Molecular target: UniProt Q9H7B4
Assay: SMYD3 biochemical assay (SPA, 3H-SAM methylation of MEKK2 protein substrate)
Settings: Table 1A; IC50 values are an average of n = 1 to n = 50; read-out: SMYD3 Biochem IC50
This section presents compounds with their documented IC50 values.
Reported Property: IC50

1. C[C@H]1C[C@H](NC(=O)c2cc(C3CC3)on2)CCN1S(=O)(=O)c1ccc(NCCN2CCOCC2)nc1
5.54 µM
2. COCCN(C)c1ccc(S(=O)(=O)N2CC[C@H](NC(=O)c3cc(C4CC4)on3)C[C@H]2C)cn1
> 10 µM
3. CC(C)CN(C)c1cc(S(=O)(=O)N2CC[C@H](NC(=O)c3cc(C4CC4)on3)C[C@@H]2C)ccn1
> 10 µM
4. CC(C)[C@H]1C[C@H](NC(=O)c2cc(C3CC3)on2)CCN1S(=O)(=O)CCCN
1.06 µM
